tested on: LOX IMVI melanoma; assay: NCI-60 one-dose screen, 48 h; conditions: 10 µM unless noted
The panel holds about 83,000 compounds, 20% with a hit somewhere; the sample as a whole holds those more often. Activity calls are given as the source filed them. Rule for the calls: active = growth percent below 10; inactive = the rest.
Outcome codes: active, inactive

smiles-input	label-class
Cc1ccc(CS/C(=C\c2ccc([N+](=O)[O-])cc2)C(=O)c2ccc(F)cc2)cc1	active
CC1=C/C(=N\N=C2/C=C(C)CC(C)(C)C2)CC(C)(C)C1	inactive
O=C1c2ccccc2C(=O)c2c1oc1c2c(=O)[nH]c2ccccc21	inactive
CCSc1nc(Cl)c(C#N)c(-c2ccc(F)cc2)n1	inactive
c1ccc(-c2n(Cc3ccc4ccccc4n3)cc[n+]2Cc2ccc3ccccc3c2)cc1	active
CC(C)NS(=O)(=O)c1cccc(-c2ccc3c(=O)n(CCCN)c4c(c3c2)C(=O)c2ccccc2-4)c1	inactive
COc1cccc(NC(=O)Nc2ccc(Nc3ncnc4[nH]c(C)c(C)c34)cc2)c1	inactive
O=C(CN1N=C(c2ccc(F)cc2)CCC1=O)Nc1nc2ccccc2s1	active
CC(C)(C#N)c1cc(F)cc(C(=O)Nc2cc(Nc3ncccc3-c3ncnc4nc[nH]c34)ccc2F)c1	active
Sc1cccc2cccnc12	active

* * *

Reported growth values are given for each entry in this list.
test system: HCC-2998 colon; experiment: NCI-60 one-dose screen, 48 h (100 = growth as untreated, 0 = no growth, -100 = all killed); conditions: 10 µM unless noted
The panel holds about 83,000 compounds, 20% with a hit somewhere; the sample as a whole holds those more often.

compound	growth [%]
Cc1cc(Cl)cc(CN(Cc2ccccc2)Cc2c(O)ccc3ccccc23)c1O	91.5
CCOC(=O)c1c(C)nc2c(c1N)/C(=C/c1ccc[nH]1)C(=O)N2Cc1ccc(C(F)(F)F)cc1	91.2
C=C(C)[C@@H]1CC[C@]2(C(=O)N=C=S)CC[C@]3(C)[C@H](CC[C@@H]4[C@@]5(C)CCC(=O)C(C)(C)[C@@H]5CC[C@]43C)[C@@H]12	43.3
CCOC(=O)c1c(C)nc2c(c1N)CC(=O)N2CCc1ccccc1	64.4
CCCn1c2cc(OCc3cn(-c4ccc(Br)cc4)nn3)ccc2c2ccnc(C)c21	83.4
O=C(/C(=C/c1ccc([N+](=O)[O-])cc1)SCc1ccc(Cl)cc1)c1ccc(F)cc1	84.5
COC(=O)c1ccc2c(c1)NC(=O)[C@@H]1CCCN21	109
COC(=O)/C=C1\SC(=Nc2cccc(Cl)c2)N(CCc2c[nH]c3ccccc23)C1=O	52.9
Cc1nc2sc(C(=O)Nc3cccc(Cl)c3C)c(N)c2cc1C(C)O (configuration not stated)	30.4
Cc1ccc(C(=O)/C(=C/c2ccc([N+](=O)[O-])cc2)S(=O)Cc2ccccc2)cc1 (configuration not stated)	74.8
O=C(O)CCNC1CCCCC1	86.4
O=C1[C@@H](OS(=O)(=O)CC(F)(F)F)[C@H](c2ccc(F)cn2)N1c1cc2c3ccccc3ccc2c2ccccc12	105
C=CCn1c(SCC(=O)Nc2ccc(C(=O)/C=C/c3cc(OC)c(OC)c(OC)c3)cc2)nnc1-c1ccc(Cl)cc1	-8.4
CCCn1c2cc(OCc3cn(-c4ccc(Cl)cc4)nn3)ccc2c2ccnc(C)c21	92.7
N#C/C(=C/c1ccc(O)c([N+](=O)[O-])c1)c1nc(-c2ccc([N+](=O)[O-])cc2)cs1	30.4
C=CCn1c(CN2CCN(c3cc4c(cc3F)c(=O)c(C(=O)O)cn4C3CC3)CC2)n[nH]c1=S	107
COc1ccc2[nH]c3nc4cnccc4cc3c2c1	117
COc1cc2cc(c1Cl)N(C)C(=O)C[C@H](OC(=O)[C@H](C)N(C)C(=O)CCS)C[C@]1(C)O[C@H]1[C@H](C)[C@@H]1C[C@@](O)(NC(=O)O1)[C@H](OC)/C=C/C=C(\C)C2	8.58
C#C[C@@]1(O)[C@@H](CO)O[C@@H](n2ccc3c(N)ncnc32)[C@@H]1O	-44.2
CCN(CC)c1ccc2c(c1)Oc1nc(N)c(C#N)c(N)c1C2Sc1ccc(OC)cc1 (configuration not stated)	-49.2
CC(=O)Oc1ccc(O)cc1	123
C=C1C(=O)O[C@H]2[C@H]1CC/C(COC(=O)CCCCCCCC(=O)OC/C1=C/CC[C@@]3(C)O[C@H]3[C@H]3OC(=O)C(=C)[C@@H]3CC1)=C\CC[C@@]1(C)O[C@@H]21	78.6
CC(=O)OC[C@]12CC[C@@H](c3cn(Cc4ccc(Cn5cc([C@@H]6CC[C@]7(COC(C)=O)CC[C@]8(C)[C@H](CC[C@@H]9[C@@]%10(C)CC[C@H](OC(C)=O)C(C)(C)[C@@H]%10CC[C@]98C)[C@@H]67)nn5)cc4)nn3)[C@@H]1[C@H]1CC[C@@H]3[C@@]4(C)CC[C@H](OC(C)=O)C(C)(C)[C@@H]4CC[C@@]3(C)[C@]1(C)CC2	104
OCCNc1nc(NCCO)nc(Nc2ccc(C3=NN(c4ccc(Cl)cc4)C(c4ccc(Cl)cc4)C3)cc2)n1 (configuration not stated)	56.8
CCCCc1nc(Cl)c(C2CC(c3ccc(Cl)cc3)=NN2c2cc(Cl)cc(Cl)c2)[nH]1 (configuration not stated)	102
O=C(/C(=C/c1ccc([N+](=O)[O-])cc1)SCc1ccccc1)c1ccc(Cl)cc1	97.3
O=S(=O)(Nc1nccs1)c1ccc(Nc2nc(-c3ccncc3)cs2)cc1	120
CCOCCc1c(O)nc(SC)[nH]c1=O	39.4
C/C(=N/Nc1nc2ccccc2n1C)c1ccccn1	39.3
CN(CCC#N)C(=O)Nc1ccccc1	108
CCn1cc(C(=O)O)c(=O)c2cc(F)c(N3CCN(CC(=O)Nc4ccc(/C(C)=N/OC)cc4)CC3)cc21	101
N#CCNc1ccc(C(=O)O)cc1	104
COc1cccc(C(=O)OCCn2nc3c4c(cccc42)C(=O)c2ccccc2-3)c1O	80.3
O=c1cc(/C=N\Nc2nc(-c3ccc(Cl)cc3Cl)cs2)c2cc(Cl)ccc2o1	105
C=C(C)[C@@H]1CCC=C2CC[C@]3(C)[C@H](CC[C@@H]4[C@@]5(C)CCCNC(C)(C)[C@@H]5CC[C@]43C)[C@H]21	5.32
CN(C)CCCn1c2c(c3cc(-c4ccco4)ccc3c1=O)C(=O)c1ccccc1-2	71.7
N#Cc1ccc(N2Cc3cc(Cl)ccc3OC3=C2C(=O)N(Cc2ccc(F)cc2)C3=O)cc1	42.2
